Source: patent US20220169728A1

Reported Function remaining percentage (5 µg/ml) values follow for various binders
experimental target: T1, CD55 (UniProt P08174 35-353, limits assumed)
T1 construct: whole, on cells; also called CD55 on Rituximab resistant Raji cells (RRCL)
T1 sequence (looked up): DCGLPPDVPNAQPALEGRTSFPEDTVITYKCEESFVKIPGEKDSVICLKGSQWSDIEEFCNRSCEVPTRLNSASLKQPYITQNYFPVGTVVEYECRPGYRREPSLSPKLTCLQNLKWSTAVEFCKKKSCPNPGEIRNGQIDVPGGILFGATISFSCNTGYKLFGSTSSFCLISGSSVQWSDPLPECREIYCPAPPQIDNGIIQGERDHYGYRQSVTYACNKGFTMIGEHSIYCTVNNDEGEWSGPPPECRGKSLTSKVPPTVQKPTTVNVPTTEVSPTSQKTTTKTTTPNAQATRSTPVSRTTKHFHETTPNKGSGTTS
test description: binding at 5 µg/ml against the unmutated antibody (SEQ ID NO: 14 + 15); format not stated
# output: bare number, implied unit %

Sample records with Function remaining percentage (5 µg/ml):
1. anti-CD55 antibody with CD55VH (SEQ ID NO: 14) N100V and VL (SEQ ID NO: 15) (antibody, V domains shown, also called Test 15) VH: QVKLQESGGGLVQPGGSLKLSCAASGFTFSGYGMSWIRQTPDKRLEWVATINSGGSYTYYSDSVKGRFTISRDNVKNTLYLQMSSLKSEDTAMYYCARRVGTLYYYLMDYWGRGTLVTVSS VL: QSVLTQPPSASGSPGQSVTISCTGTSSDVGGYNYVSWYQQHPGKAPKFMIYDVSKRPSGVSNRFSGSKSGNTASLTISGVQAEDEADYYCSSYTSASTVIFGGGTKLTVL :: 94
2. anti-CD55 antibody with CD55VH (SEQ ID NO: 14) N52P and VL (SEQ ID NO: 15) (antibody, V domains shown, also called Test 11) VH: QVKLQESGGGLVQPGGSLKLSCAASGFTFSGYGMSWIRQTPDKRLEWVATIPSGGSYTYYSDSVKGRFTISRDNVKNTLYLQMSSLKSEDTAMYYCARRNGTLYYYLMDYWGRGTLVTVSS VL: QSVLTQPPSASGSPGQSVTISCTGTSSDVGGYNYVSWYQQHPGKAPKFMIYDVSKRPSGVSNRFSGSKSGNTASLTISGVQAEDEADYYCSSYTSASTVIFGGGTKLTVL :: 11

Query block: Tell me the measured Function remaining percentage (5 µg/ml) of anti-CD55 antibody with CD55VH (SEQ ID NO: 14) N100Y and VL (SEQ ID NO: 15) (antibody, V domains shown, also called Test 16) VH: QVKLQESGGGLVQPGGSLKLSCAASGFTFSGYGMSWIRQTPDKRLEWVATINSGGSYTYYSDSVKGRFTISRDNVKNTLYLQMSSLKSEDTAMYYCARRYGTLYYYLMDYWGRGTLVTVSS VL: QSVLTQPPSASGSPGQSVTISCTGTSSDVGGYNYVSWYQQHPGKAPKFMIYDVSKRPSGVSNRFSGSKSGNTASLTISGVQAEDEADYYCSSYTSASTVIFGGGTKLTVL , please.
Result block: 95
